Provide the reported melting point of each item.

Request the reported melting point associated with O=Cc1ccc(/C=C\C(=O)c2cccc(N=Nc3cccc(Cl)c3Cl)c2O)cc1 [Compound C-25]
96 to 98 °C

Again, but for O=C(/C=C/c1ccc(Cl)cc1Cl)c1ccc(O)c(N=Nc2cccc(Cl)c2Cl)c1 [Compound C-18]
110 to 112 °C

Again, but for COc1ccccc1/C=C\C(=O)c1ccc(N=Nc2c(O)cccc2O)cc1 [Compound C-27]
320 to 322 °C

Again, but for CC(=O)c1ccc(O)c(N=Nc2cccc(Cl)c2Cl)c1 [Dye A]
140 to 142 °C

Again, but for O=C(/C=C\c1ccco1)c1ccc(N=Nc2c(O)cccc2O)cc1 [Compound C-24]
315 to 317 °C

Again, but for O=C(/C=C\c1ccc(Cl)cc1Cl)c1cccc(N=Nc2cccc(Cl)c2Cl)c1O [Compound C-19]
112 to 114 °C

Again, but for O=C(/C=C\c1ccccc1[N+](=O)[O-])c1cccc(N=Nc2cccc(Cl)c2Cl)c1O [Compound C-20]
105 to 107 °C

Again, but for O=Cc1ccc(/C=C\C(=O)c2ccc(N=Nc3c(O)cccc3O)cc2)cc1 [Compound C-23]
182 to 184 °C

Again, but for O=C(/C=C\c1cc(Br)ccc1O)c1ccc(N=Nc2c(O)cccc2O)cc1 [Compound C-21]
155 to 157 °C

Again, but for CC(=O)c1ccc(N=Nc2c(O)cccc2O)cc1 [Dye E]
240 to 242 °C

Again, but for O=C(/C=C\c1cc(Br)ccc1O)c1ccc(N=Nc2ccc([N+](=O)[O-])cc2Cl)c(O)c1 [Compound C-22]
160 to 162 °C
